assayMethodText: chemical genetic growth profiling, strain panel (AID 1159580);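 note: tested at 20 µM; growth read once vehicle control cultures reached saturation at 30 °C; 1 = growth at the plate median or of vehicle wells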
protocolConditions: S. cerevisiae deletion strains, growth OD, locus YMR219W, strain ESC1, stronger effect = lower value
Among all 5,500 compounds or so, about 2,000 (36%) were called active. Roughly 18% stayed inconclusive and do not appear here. This is one part of the list.
observedProperty: normalized growth
Quick one: just the number, no unit, thanks!

COc1cc(/C=C2/SC(=S)NC2=O)cc(OC)c1OC	0.926
COc1cccc(Nc2nc3ccccc3s2)c1	0.804
Cc1ccc(N=Nc2c(C)[nH]n(C)c2=O)cc1	0.964
CCOC(=O)c1cnc2nc(SC)nn2c1N	0.993
N#Cc1nccnc1Sc1ccc(Cl)cc1	0.93

Recorded normalized growth of O/N=C\c1sccc1Oc1ccccc1 , please.
0.977

I have this compound here, COc1cccc(NC(N)=S)c1 , and I need its recorded normalized growth.
1.01

Given the compound COc1cc(/C=C2/N=C(c3ccccc3I)OC2=O)cc(OC)c1OC , what is its reported normalized growth?
1

Form field: reported normalized growth of CC(=O)C1C(=O)CC(c2ccc(Cl)cc2)CC1=O (stereo not given)
0.562

----------
Known normalized growth of a selection of compounds
assayMethodText: chemical genetic growth profiling, strain panel (AID 1159580)
protocolConditions: S. cerevisiae deletion strains, growth OD, locus YBR023C, strain chs3, stronger effect = lower value
Among all 5,500 compounds or so, about 2,000 (36%) were called active. Roughly 18% stayed inconclusive and do not appear here. The list shows a part of the results.
Respond numerically, and do not add a unit to the figure.

Solved entries:
Cc1cc(C(C)(C)C)cc(C)c1CC1=NCCN1	1.01
NCCc1cc(O)c(O)cc1O	0.94
O=C(CCc1ccc(O)cc1)c1c(O)cc(O)cc1O[C@@H]1O[C@H](CO)[C@@H](O)[C@H](O)[C@H]1O	1.01

State the recorded normalized growth for this entry: Cc1onc(-c2c(Cl)cccc2Cl)c1C(=O)N[C@@H]1C(=O)N2[C@@H]1SC(C)(C)[C@@H]2C(=O)O
0.986

Form field: reported normalized growth of CN1CCN(CC(=O)N2c3ccccc3C(=O)Nc3cccnc32)CC1
1.01

// returns reported normalized growth for input NC[C@H]1O[C@H](O[C@H]2C(O[C@@H]3O[C@H](CO)[C@@H](O)[C@H]3O)[C@@H](O)[C@H](N)C[C@@H]2N)[C@H](N)[C@@H](O)[C@@H]1O (some centres undefined)
0.995

For Cc1c(NC(=O)c2cccnc2)c(=O)n(-c2ccccc2)n1C , what is its reported normalized growth?
1.01

Form field: reported normalized growth of Cc1cc(C(C)(C)C)c(O)c(C)c1CC1=NCCN1
1.02

Bench note: what normalized growth did COc1cccc(OC)c1C(=O)N[C@@H]1C(=O)N2[C@@H]1SC(C)(C)[C@@H]2C(=O)O show?
0.988

What normalized growth value was documented for this compound, C=C(C)[C@@H]1CC[C@]2(CO)CC[C@]3(C)[C@H](CCC4[C@@]5(C)CC[C@H](O)C(C)(C)C5CC[C@]43C)C12 (some centres undefined) ?
1.01

What measured normalized growth goes with OCc1c[nH]c2ccccc12 ?
0.955

Suppose we examine the compound CNC(Cc1c[nH]c2ccccc12)C(=O)O (centres undefined) ; what normalized growth value has been reported?
0.994

Looking for the measured normalized growth of NCCc1c[nH]c2ccccc12 , can you help?
0.945

normalized growth for Cc1onc(-c2ccccc2Cl)c1C(=O)N[C@@H]1C(=O)N2[C@@H]1SC(C)(C)[C@@H]2C(=O)O ?
1.03

Query (compound): C#C[C@]1(O)CCC2C3CCC4=Cc5oncc5C[C@]4(C)C3CC[C@@]21C (some centres undefined) ; field requested: normalized growth
0.958

----------
assayMethodText: chemical genetic growth profiling, strain panel (AID 1159580)
protocolConditions: S. cerevisiae deletion strains, growth OD, locus YNL207W, strain RIO2, stronger effect = lower value
Screen size: about 5,500 compounds; about 2,000 (36%) were called active. Inconclusive results (about 18%) are left out. The list shows a part of the results.
observedProperty: normalized growth
Number, no unit, nothing else.

Some solved cases for reference:
Clc1ccc(N/N=C\c2sccc2Oc2ccccc2)cc1	0.969
CC(=O)c1ccccc1C(=O)c1ccc(C(C)(C)C)cc1	0.958
FC(F)(F)c1cc(-c2ccc(Cl)cc2)n[nH]1	0.897
COc1ccc(C2CC(c3ccc(C)cc3C)=NN2C(C)=O)cc1 (stereo not drawn)	0.991
Cn1nc(-c2ccccc2)c(O)c(N=Nc2ccccc2)c1=O	0.964
O=c1c(-c2ccccc2)c(O)c2cccc3c4c(n1c23)CCCC4	0.95
OC(CSc1ccccc1)CN1CCN(c2nc(-c3ccccc3)ns2)CC1 (stereo not drawn)	0.987

Alright, here's another compound for you.
Quick one: normalized growth of COc1cc(N2C(=O)C=CC2=O)cc(OC)c1OC ?
0.968

----------
assayMethodText: chemical genetic growth profiling, strain panel (AID 1159580);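 note: tested at 20 µM; growth read once vehicle control cultures reached saturation at 30 °C; 1 = growth at the plate median or of vehicle wells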
protocolConditions: S. cerevisiae deletion strains, growth OD, locus YNL224C, strain SQS1
Screen size: about 5,500 compounds; about 2,000 (36%) were called active. About 18% were inconclusive and are not listed. Rule as the data show it: active = normalized growth mostly below about 0.91 (no sharp cut-off); inconclusive = no clear call, values can overlap the other calls; inactive = mostly above about 0.92. The list shows a part of the results.
Tick one outcome: active, inactive

Solved entries:
Cc1cc(C(C)(C)C)cc(C)c1CC1=NCCN1	inactive
COc1cccc(C(=O)NCCN2CCN(c3ccc(Cl)cc3)CC2)c1	inactive
CCCCCCC(C)(C)c1ccc([C@@H]2C[C@H](O)CC[C@H]2CCCO)c(O)c1	inactive

Call for entry OCCN1CCN(CC/C=C2/c3ccccc3Sc3ccc(C(F)(F)F)cc32)CC1 :
inactive

Query: recorded result category for CC(=O)Oc1ccccc1C(=O)O in this test
inactive

----------
assayMethodText: chemical genetic growth profiling, strain panel (AID 1159580);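 note: tested at 20 µM; growth read once vehicle control cultures reached saturation at 30 °C; 1 = growth at the plate median or of vehicle wells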
protocolConditions: S. cerevisiae deletion strains, growth OD, locus YOL147C, strain pex11
Hit rate of the full screen: of about 5,500 compounds, about 2,000 (36%) were called active. Another 18% or so got no clear call; they are omitted. No stated cut-off is given here; in the data, active means normalized growth mostly below about 0.91 (no sharp cut-off); inconclusive means no clear call, values can overlap the other calls; inactive means mostly above about 0.92. Some of the results follow. Where a SMILES comes first, the peptide text is derived from it. Side-chain parts run from the residue outwards. [ ]: non-standard residue; d: D form. The star is where a group is joined. X1 = CCC(C)C(N)C1=NC(C(=O)*)CS1; Orn = NCCC[CH](N)C(=O)O
Answer with one of the outcomes active, inactive

These solved cases illustrate the format of a correct answer.
NCC1OC(OC2C(CO)OC(OC3C(O)C(N)CC(N)C3OC3OC(CO)C(O)CC3N)C2O)C(N)C(O)C1OC1OC(CO)C(O)C(O)C1O (stereo not drawn)	inactive
CC(=O)OCC(=O)[C@@]1(O)CCC2C3CCC4=CC(=O)CC[C@]4(C)C3[C@@H](O)C[C@@]21C (stereo partly drawn)	inactive
COc1cc(NS(=O)(=O)c2ccc(N)cc2)ncn1	inactive

What did this assay record as the result for C[C@]12CCC(=O)C=C1CCC1C2C(=O)C[C@@]2(C)C1CC[C@]2(O)C(=O)CO (stereo partly drawn) ?
inactive

Check the results log: what was the call for C#CC1(O)CCC2C3CCC4=CC(=O)CCC4(C)C3CCC21C (stereo not drawn) ?
inactive

Which outcome was entered for the molecule CCC(C)C(N)C1=NC(C(=O)NC(CC(C)C)C(=O)NC(CCC(=O)O)C(=O)NC(C(=O)NCCCCC2NC(=O)C(CC(N)=O)NC(=O)C(CC(=O)O)NC(=O)C(Cc3cnc[nH]3)NC(=O)C(Cc3ccccc3)NC(=O)C(C(C)CC)NC(=O)C(CCCN)NC2=O)C(C)CC)CS1 (stereo not drawn) (cyclo(DNK([Ile-Glu-Leu-X1])[Orn]IFH); configuration not given here) in this test?
inactive

Outcome? C#C[C@]1(O)CCC2C3CCC4=Cc5oncc5C[C@]4(C)C3CC[C@@]21C (stereo partly drawn)
active

Per the assay record, what outcome was assigned to CC1=NN(c2ccccc2)C(=O)C1 ?
inactive

----------
normalized growth for assorted compounds
assayMethodText: chemical genetic growth profiling, strain panel (AID 1159580);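 note: tested at 20 µM; growth read once vehicle control cultures reached saturation at 30 °C; 1 = growth at the plate median or of vehicle wells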
protocolConditions: S. cerevisiae deletion strains, growth OD, locus YEL061C, strain CIN8, stronger effect = lower value
Hit rate of the full screen: of about 5,500 compounds, about 2,000 (36%) were called active. Inconclusive results (about 18%) are left out. The list shows a part of the results.

C#C[C@]1(O)CCC2C3CCC4=Cc5oncc5C[C@]4(C)C3CC[C@@]21C (stereo not given in full)	0.93 (inactive)

Can you share its normalized growth? I mean this compound: COc1cccc(NC(N)=S)c1
1.01 (inactive)

Requested field: normalized growth. Item: CCN(CC)CCNC(=O)c1cc(Cl)c(N)cc1OC
1.01 (inactive)

Consider the compound shown here: CCCc1nc2c(C)cc(-c3nc4ccccc4n3C)cc2n1Cc1ccc(-c2ccccc2C(=O)O)cc1 What is its recorded normalized growth?
1.01 (inactive)

Bench note: what normalized growth did C[C@]12CCC(=O)C=C1CCC1C2[C@@H](O)C[C@@]2(C)C1CC[C@]2(O)C(=O)COC(=O)CCC(=O)O (stereo not given in full) show?
1.01 (inactive)
